# Tested on: Alternaria brassicicola
# ASSAY PROTOCOL: In vitro nephelometric fungal growth test
# RUN PARAMETERS: A. brassicicola
REPORTED ENDPOINT: Cmax (concentration inducing at most 20% inhibition of fungal growth) (µM)
Numbers only; they are read as µM.

# returns recorded Cmax (concentration inducing at most 20% inhibition of fungal growth) (system: Alternaria brassicicola) for CC(C)=CCc1c(O)cc2oc3c(O)cccc3c(=O)c2c1O [1,3,5-trihydroxy-2-prenylxanthone]
100

----------
# System: Botrytis cinerea
# ASSAY PROTOCOL: In vitro nephelometric fungal growth test
# RUN PARAMETERS: B. cinerea; inferior to MIG50 and inferior or equal to Cmax
Listed compounds paired with reported CTP (retained non-fungicidal concentration applied in planta)
Please reply with the bare figure in µM and do not write the unit itself.

- COMPOUND: "CC(C)=CCc1c(O)cc2oc3cc(O)c(O)c(CC=C(C)C)c3c(=O)c2c1O"
  ENDPOINT VALUE: 25
- COMPOUND: "CC(C)=CCc1c(O)cc2oc3c(O)cccc3c(=O)c2c1O [1,3,5-trihydroxy-2-prenylxanthone]"
  ENDPOINT VALUE: 25
- COMPOUND: "CC(C)=CCc1c(O)cc(O)c2c(=O)c3cccc(O)c3oc12 [1,3,5-trihydroxy-4-prenylxanthone]"
  ENDPOINT VALUE: 25

// next entry
Can you look up the measured CTP (retained non-fungicidal concentration applied in planta) of O=Cc1cc(I)cc(I)c1O [DISA1, 3,5-diiodosalicylaldehyde, reference compound] for me?
2.5

----------
# Test system: Botrytis cinerea
# ASSAY PROTOCOL: In vitro nephelometric fungal growth test
# RUN PARAMETERS: B. cinerea
REPORTED ENDPOINT: Cmax (concentration inducing at most 20% inhibition of fungal growth) (µM)
# unit: µM | format: bare number

- COMPOUND: "CC(C)=CCc1c(O)cc2oc3c(O)cccc3c(=O)c2c1O [1,3,5-trihydroxy-2-prenylxanthone]"
  TARGET OR TEST SYSTEM: "Botrytis cinerea"
  ENDPOINT VALUE: 100
- COMPOUND: "O=Cc1cc(I)cc(I)c1O [DISA1, 3,5-diiodosalicylaldehyde, reference compound]"
  TARGET OR TEST SYSTEM: "Botrytis cinerea"
  ENDPOINT VALUE: 2.5
- COMPOUND: "CC(C)=CCc1c(O)cc(O)c2c(=O)c3cccc(O)c3oc12 [1,3,5-trihydroxy-4-prenylxanthone]"
  TARGET OR TEST SYSTEM: "Botrytis cinerea"
  ENDPOINT VALUE: 100

What Cmax (concentration inducing at most 20% inhibition of fungal growth) value was documented for this compound, CC(C)=CCc1c(O)cc2oc3cc(O)c(O)c(CC=C(C)C)c3c(=O)c2c1O [γ-mangostin] ?
100

----------
# TARGET OR TEST SYSTEM: IRE1 (Saccharomyces cerevisiae, UniProt P32361)
# Construct: endogenous in cells
# Sequence (P32361 19-1115): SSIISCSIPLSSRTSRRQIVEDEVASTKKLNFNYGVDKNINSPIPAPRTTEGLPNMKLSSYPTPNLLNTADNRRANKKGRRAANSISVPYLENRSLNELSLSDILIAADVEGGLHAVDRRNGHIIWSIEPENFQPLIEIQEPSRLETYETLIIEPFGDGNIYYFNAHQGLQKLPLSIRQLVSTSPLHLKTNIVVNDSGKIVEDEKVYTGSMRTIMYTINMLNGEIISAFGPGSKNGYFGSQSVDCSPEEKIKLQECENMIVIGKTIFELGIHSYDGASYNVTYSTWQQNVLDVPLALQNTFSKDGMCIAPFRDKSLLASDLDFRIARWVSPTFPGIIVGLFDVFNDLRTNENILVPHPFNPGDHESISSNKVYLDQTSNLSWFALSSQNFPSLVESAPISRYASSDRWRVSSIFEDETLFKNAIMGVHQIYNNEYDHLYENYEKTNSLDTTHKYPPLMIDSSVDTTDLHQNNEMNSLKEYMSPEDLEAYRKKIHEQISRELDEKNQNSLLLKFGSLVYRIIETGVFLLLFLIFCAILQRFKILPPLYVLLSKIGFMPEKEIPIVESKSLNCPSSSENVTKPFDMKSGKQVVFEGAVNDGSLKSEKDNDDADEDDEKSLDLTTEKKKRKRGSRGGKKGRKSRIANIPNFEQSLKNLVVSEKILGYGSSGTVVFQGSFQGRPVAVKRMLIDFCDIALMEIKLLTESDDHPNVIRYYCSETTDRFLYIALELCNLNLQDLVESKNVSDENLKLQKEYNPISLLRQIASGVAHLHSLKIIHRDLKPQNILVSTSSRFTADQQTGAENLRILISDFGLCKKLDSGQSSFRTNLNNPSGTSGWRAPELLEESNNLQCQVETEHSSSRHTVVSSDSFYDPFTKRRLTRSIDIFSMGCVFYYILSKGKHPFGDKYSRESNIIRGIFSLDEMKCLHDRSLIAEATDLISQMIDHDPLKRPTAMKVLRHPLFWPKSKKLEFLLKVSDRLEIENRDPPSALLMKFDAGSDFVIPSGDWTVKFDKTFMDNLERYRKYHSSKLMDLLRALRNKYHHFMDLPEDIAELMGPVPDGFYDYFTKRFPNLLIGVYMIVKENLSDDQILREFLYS
# ASSAY PROTOCOL: IRE1 inhibitors screening (inhibition of transcriptional activator HAC1 in yeast)
# Type: cell-based
REPORTED ENDPOINT: IC50 (µM)
Write the answer as a number in µM, unit excluded.

Which IC50 value belongs to O=C1C=CC(=O)c2c(O)cccc21 [Juglone, 5-hydroxy-1,4-naphthalenedione] ?
12.8

----------
# TARGET OR TEST SYSTEM: IRE1 (Saccharomyces cerevisiae)
# Construct: endogenous in cells
# ASSAY PROTOCOL: IRE1 inhibitors screening (inhibition of transcriptional activator HAC1 in yeast)
# Assay type: cell-based
# RUN PARAMETERS: in vitro screening; IRE1 activity of less than 80% = retained as IRE1 inhibitor
REPORTED ENDPOINT: μ (% activation) ± σ (%)
Reply numerically in %, unit not repeated.

- STRUCTURE SMILES: "Cc1cc(O)c2c(c1)C(=O)c1cc(O)cc(O)c1C2=O"
  TARGET OR TEST SYSTEM: "IRE1 (Saccharomyces cerevisiae)"
  MEASUREMENT UNIT: "%"
  μ (% activation) ± σ: 104.5
- STRUCTURE SMILES: "CC1(C)C=Cc2c(cc3oc4ccc5c(c4c(=O)c3c2O)C=CC(C)(C)O5)O1"
  TARGET OR TEST SYSTEM: "IRE1 (Saccharomyces cerevisiae)"
  MEASUREMENT UNIT: "%"
  μ (% activation) ± σ: 101.1
- STRUCTURE SMILES: "O=c1cc(-c2ccc(O)c(-c3c(O)cc(O)c4c(=O)cc(-c5ccc(O)cc5)oc34)c2)oc2cc(O)cc(O)c12"
  TARGET OR TEST SYSTEM: "IRE1 (Saccharomyces cerevisiae)"
  MEASUREMENT UNIT: "%"
  μ (% activation) ± σ: 101.8
- STRUCTURE SMILES: "c1cc2c(c3c1C[C@H]1c4cc5c(cc4CCN1C3)OCO5)OCO2"
  TARGET OR TEST SYSTEM: "IRE1 (Saccharomyces cerevisiae)"
  MEASUREMENT UNIT: "%"
  μ (% activation) ± σ: 101.4

Now look at this one.
# input compound: `O=C(CCc1ccc(O)cc1)c1c(O)cc(O)cc1O` ; wanted: its μ (% activation) ± σ
101.8
